Molecular target: T1, purified recombinant human VEGF165 (human, UniProt P15692 27-191, glycosylated)
T1 construct: mature; Bought from Calbiochem; also called VEGF protein (Calbiochem); homodimeric VEGF protein
T1 sequence (P15692 other isoform, or with tags, fused parts or gaps limits assumed): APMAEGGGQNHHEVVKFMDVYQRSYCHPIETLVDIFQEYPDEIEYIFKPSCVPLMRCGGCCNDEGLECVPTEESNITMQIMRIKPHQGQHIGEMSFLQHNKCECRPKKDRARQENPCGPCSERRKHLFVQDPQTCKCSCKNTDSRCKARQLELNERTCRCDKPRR
Test: SPR (BIAcore), purified scFv over VEGF immobilized on CM5 chip, 35 C
# Kd values compiled below
Give the value in nM but do not write nM after it.

[in] Reported Kd, binder hAB14 (scFv, Single chain format; not shown: HA-His6 tag at C-terminus) scFv: EVQLVQSGGGVVQPGGSLRLSCAASGYTFTNYGMNWIRQAPGKGLEWVGWINTYTGEPTYAADFKRRVTFSLDTSKSTAYLQLNSLRAEDTAVYYCAKYPYYYGRSHWYFDVWGQGTLVTVSSGGGGSGGGGSGGGGSAIRMTQSPSSVSASVGDTVTIACRASQAIRNDLTWYQQKPGTAPKLLIYGATTLQSGVPSRFSGSGSGTDFTLTISSLQPEDFATYYCQQSSTTPWTFGQGTKVDIK : ____
[out] 3.6

[in] Which Kd reading was recorded for the binder hAB37 (scFv, Single chain format; not shown: HA-His6 tag at C-terminus) scFv: EVQLVQSGGGVVQPGGSLRLSCAASGYNFSHFGLNWLRQAPGKGLEWVGWINTYNGETTYAPDFKRRVTFSLDTSKSTAYLQLNSLRAEDTAVYYCAKYPYYYGRSHWYFDVWGQGTLVTVSSGGGGSGGGGSGGGGSDIVMTQSPSTLSASPGERATITCNASQSIGSYLAWYQQKPGQAPKVLIYGASNLASGVPSRFSGSRSGTDFTLTISSLQPEDFAVYYCQQYNSTPWTFGGGTKLEIK ?
[out] 0.8

[in] Reported Kd for hAB38 (scFv, Single chain format; not shown: HA-His6 tag at C-terminus) scFv: EVQLVQSGGGVVQPGGSLRLSCAASGYNFSHFGLNWLRQAPGKGPEWVGWINTYTGEPTYAPEFKRRVTFSLDTSKSTAYLQLNSLRAEDTAVYYCAKYPYYYGRSHWYFDVWGQGTLVTVSSGGGGSGGGGSGGGGSDIVMTQSPSTLSASPGERATITCNASQSIGSYLAWYQQKPGQAPKVLIYGASNLASGVPSRFSGSRSGTDFTLTISSLQPEDFAVYYCQQYNSTPWTFGGGTKLEIK : what is it?
[out] 0.9

All figures here come from patent US20040133357A1.
